target-entity: Muscarinic acetylcholine receptor M3 (Homo sapiens, UniProt P20309)
Sequence (P20309 whole entry, looked up): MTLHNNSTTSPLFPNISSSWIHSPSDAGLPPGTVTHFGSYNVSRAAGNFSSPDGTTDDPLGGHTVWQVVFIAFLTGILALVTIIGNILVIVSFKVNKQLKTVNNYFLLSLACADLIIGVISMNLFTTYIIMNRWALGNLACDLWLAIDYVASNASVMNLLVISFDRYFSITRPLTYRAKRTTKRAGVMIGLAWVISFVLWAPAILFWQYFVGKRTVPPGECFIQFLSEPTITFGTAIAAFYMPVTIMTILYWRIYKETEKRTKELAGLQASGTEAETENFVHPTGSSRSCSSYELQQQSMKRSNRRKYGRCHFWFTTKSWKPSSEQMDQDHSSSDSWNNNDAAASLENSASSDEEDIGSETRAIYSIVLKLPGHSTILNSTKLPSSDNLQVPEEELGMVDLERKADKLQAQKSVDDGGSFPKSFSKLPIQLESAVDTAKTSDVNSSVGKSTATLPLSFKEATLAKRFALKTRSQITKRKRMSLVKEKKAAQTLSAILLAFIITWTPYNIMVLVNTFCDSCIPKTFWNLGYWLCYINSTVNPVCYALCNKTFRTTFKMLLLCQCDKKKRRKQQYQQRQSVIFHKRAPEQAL
result-type: Ki

Name the recorded Ki of the item CN1CC2CC(OC(=O)C(C)(c3ccccc3)c3ccccc3)CC1C2 (stereo unspecified) [AZAPROPHEN] in your answer. 0.472 nM

---

measurement-notes: Inhibition of [3H]QNB binding towards muscarinic acetylcholine receptor in rat heart
result-type: Ki
Enter the number, and then the unit.

CN1[C@@H]2CC[C@H]1C[C@@H](OC(=O)C(CO)c1ccccc1)C2 (some centres not stated); 0.545 nM

Name the recorded Ki of the item CN1CC2CC(OC(=O)C(C)(c3ccccc3)c3ccccc3)CC1C2 (configuration not stated) in your answer. 0.13 nM

---

target-entity: UniProt:P11229
Sequence (P11229 whole entry): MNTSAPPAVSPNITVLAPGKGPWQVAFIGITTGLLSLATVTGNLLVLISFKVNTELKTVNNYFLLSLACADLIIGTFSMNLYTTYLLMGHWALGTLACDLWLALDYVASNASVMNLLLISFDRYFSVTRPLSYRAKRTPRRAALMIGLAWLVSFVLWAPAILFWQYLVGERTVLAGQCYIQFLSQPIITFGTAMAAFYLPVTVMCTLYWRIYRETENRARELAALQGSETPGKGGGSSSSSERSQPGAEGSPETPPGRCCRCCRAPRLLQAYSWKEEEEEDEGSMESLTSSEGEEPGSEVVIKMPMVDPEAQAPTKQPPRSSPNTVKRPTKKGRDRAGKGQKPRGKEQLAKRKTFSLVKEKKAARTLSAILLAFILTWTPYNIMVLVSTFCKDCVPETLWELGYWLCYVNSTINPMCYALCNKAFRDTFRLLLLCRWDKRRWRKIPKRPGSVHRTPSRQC
result-type: Ki (nM)
Numbers only, in nM.

Write down the reported Ki (system: UniProt:P11229) of CN1CC2CC(OC(=O)C(C)(c3ccccc3)c3ccccc3)CC1C2 (stereo unspecified) 0.088

---

measurement-notes: Inhibition of [3H]QNB binding towards muscarinic acetylcholine receptor in rat brain
Assay type: tissue-based
result-type: Ki (pM)
Answers are plain numbers, in pM.

Name the recorded Ki of the item CN1CC2CC(OC(=O)C(C)(c3ccccc3)c3ccccc3)CC1C2 (stereo unspecified) [AZAPROPHEN] in your answer. 118

---

measurement-notes: Inhibition of [3H]pirenzepine binding towards muscarinic acetylcholine receptor in rat brain.
Type: tissue-based
result-type: pKi
Give bare numbers, as −log10 of the molar value.

Name the recorded pKi of the item CN1CC2CC(OC(=O)C(C)(c3ccccc3)c3ccccc3)CC1C2 (stereo unspecified) [AZAPROPHEN] in your answer. 9.71
